- Tested on: Streptococcus pneumoniae
- PROCEDURE DETAILS: Antibacterial activity against erythromycin-resistant Streptococcus pneumoniae A22072 expressing mef gene by the broth microdilution method
- Format: functional
Below, each of the compounds is paired with its reported MIC value.
Please reply with the bare figure in µg/mL and do not write the unit itself.

• CC[C@H]1OC(=O)[C@H](C)[C@@H](O[C@H]2C[C@@](C)(OC)[C@@H](OC(=O)NCCCCNC(=O)c3cc([N+](=O)[O-])cc([N+](=O)[O-])c3)[C@H](C)O2)[C@H](C)[C@@H](O[C@@H]2O[C@H](C)C[C@H](N(C)C)[C@H]2O)[C@](C)(O)C[C@@H](C)CN(C)[C@H](C)[C@H]2OC(=O)O[C@@]21C = 0.12

Next compound, please.
INPUT: Which MIC value belongs to CC[C@H]1OC(=O)[C@H](C)[C@@H](O[C@H]2C[C@@](C)(OC)[C@@H](OC(=O)NCCCCNC(=O)c3ccc(OC)c(OC)c3)[C@H](C)O2)[C@H](C)[C@@H](O[C@@H]2O[C@H](C)C[C@H](N(C)C)[C@H]2O)[C@](C)(O)C[C@@H](C)CN(C)[C@H](C)[C@H]2OC(=O)O[C@@]21C ?
OUTPUT: 1

Hello, the source for this data is ChEMBL document CHEMBL1828549, in case you need it.
